Endpoint summary: pIC50, system: IRAK4 (Homo sapiens (Human), UniProt Q9NWZ3), multiple sources combined.
pIC50: −log10 of the molar value.

As a guide, the following entries are already answered.
{"testSmiles": "CC1(C)OC(=O)c2ccc(Nc3ncc(-c4nc(-c5ccccn5)no4)c(N[C@H](CO)c4ccccc4)n3)cc21", "targetSystem": "IRAK4 (Homo sapiens (Human), UniProt Q9NWZ3)", "pIC50": "6.00 to 6.60"}
{"testSmiles": "CCOc1cc(-c2cccc([C@@H](N)CC(C)(F)F)n2)cc2c1cnn2-c1cccc(CO)n1", "targetSystem": "IRAK4 (Homo sapiens (Human), UniProt Q9NWZ3)", "pIC50": "> 7.00"}
{"testSmiles": "Cn1cc(-c2cccc(-c3ncc(-c4ccn(C)n4)c(NC[C@H](O)CO)n3)c2)cn1", "targetSystem": "IRAK4 (Homo sapiens (Human), UniProt Q9NWZ3)", "pIC50": "6.00 to 7.00"}

Please find the next compound below.
Ask: Record lookup: for IRAK4 (Homo sapiens (Human), UniProt Q9NWZ3), what pIC50 belongs to CCC[C@H](N)c1cccc(-c2cc(N3CCC(F)(F)C3)c3cnn(-c4cccc(CO)n4)c3c2)n1 ?
Reply: > 7.00

* * *

Endpoint summary: pIC50, system: IRAK4 (Homo sapiens (Human), UniProt Q9NWZ3), multiple sources combined.
pIC50: −log10 of the molar value.

As a guide, the following entries are already answered.
{"molecule": "CCNC(=O)c1csc(Nc2nc(OC(C)C)c3c(ccn3-c3cnn(C)c3)n2)c1", "pIC50": "≥ 7.00"}
{"molecule": "Cn1cc(-c2cccc(C(=O)Nc3nc(CCCCCCNC(=O)C4CC4)cn3-c3ccccc3)c2)cn1", "pIC50": "> 7.30"}
{"molecule": "CC(c1cccc(-c2ccc3cnn(-c4cccc(C(F)(F)F)n4)c3c2)n1)N(C)C (stereo not shown)", "pIC50": "> 7.00"}
{"molecule": "O=C(O)Cc1cn(-c2ccccc2)c(NC(=O)c2cccc(-c3cn[nH]c3)c2)n1", "pIC50": "< 7.00"}

Ask: Record lookup: for IRAK4 (Homo sapiens (Human), UniProt Q9NWZ3), what pIC50 belongs to CCNC(=O)c1cc(Nc2nc(OCCOC)c3c(ccn3-c3cnn(C)c3)n2)cs1 ?
Reply: ≥ 7.00

Ask: Record lookup: for IRAK4 (Homo sapiens (Human), UniProt Q9NWZ3), what pIC50 belongs to CCC[C@@H](N)c1nccc(-c2ccc3cnn(-c4cccc(CO)n4)c3c2)n1 ?
Reply: > 7.00

Ask: Record lookup: for IRAK4 (Homo sapiens (Human), UniProt Q9NWZ3), what pIC50 belongs to CN(C)[C@H]1CC[C@H](Nc2ncnc3sc4c(c23)C(CC(=O)N2CCCC2)CC4)CC1 (stereo partly shown) ?
Reply: < 4.30

* * *

Endpoint summary: IC50, system: IRAK4 (Homo sapiens (Human), UniProt Q9NWZ3), multiple sources combined.

As a guide, the following entries are already answered.
{"compound": "CCC[C@H](N)c1cccc(-c2ccc3cnn(-c4cccc([C@@H](O)C(F)(F)F)n4)c3c2)n1", "IC50": "< 100 nM"}
{"compound": "Cn1cc(-c2cccc(-c3ncc(-c4ccn(C)n4)c(NC4CC5(CC(N)C5)C4)n3)c2)cn1 (centres unmarked)", "IC50": "100 to 1000 nM"}

Please find the next compound below.
Ask: Name the reported IC50 value associated with the compound Cn1cc(-c2cccc(C(=O)Nc3nc(CCCC(=O)NC4CC4)cn3-c3ccccc3)c2)cn1
Reply: < 50 nM

* * *

Endpoint summary: IC50, system: UniProt Q9NWZ3, multiple sources combined.

{"compound": "CCC[C@H](N)c1cccc(-c2cc(OCC)c3cnn(-c4cccc(CO)n4)c3c2)n1", "IC50": "< 100 nM"}

Ask: Record lookup: for UniProt Q9NWZ3, what IC50 belongs to Cn1cc(-c2cccc(C(=O)Nc3nc(CCCCCC(=O)NC4CC4)cn3-c3ccccc3)c2)cn1 ?
Reply: < 50 nM

Ask: Record lookup: for UniProt Q9NWZ3, what IC50 belongs to N#Cc1c[nH]c2ncnc(O[C@H]3CC[C@H](N4CCOCC4)CC3)c12 ?
Reply: 1000 to 10000 nM

Ask: Record lookup: for UniProt Q9NWZ3, what IC50 belongs to Cc1cc(Nc2nc(N[C@H]3CC[C@H](O)CC3)c3occc3n2)sn1 ?
Reply: 100 to 1000 nM

Ask: Record lookup: for UniProt Q9NWZ3, what IC50 belongs to c1coc(Nc2nc(N[C@H]3CC[C@H](N4CCOCC4)CC3)c3c4c(sc3n2)CCCC4)n1 ?
Reply: 5000 to 20000 nM

Ask: Record lookup: for UniProt Q9NWZ3, what IC50 belongs to Cn1cc(-c2cccc(C(=O)Nc3nc(CCCC(=O)NCC4CCOC4)cn3-c3ccccc3)c2)cn1 (stereo not shown) ?
Reply: < 50 nM

Ask: Record lookup: for UniProt Q9NWZ3, what IC50 belongs to Cn1cc(-c2cccc(C(=O)Nc3nc(CCCC(N)=O)cn3-c3ccccc3)c2)cn1 ?
Reply: < 50 nM

* * *

Endpoint summary: IC50, system: IRAK4 (Homo sapiens (Human)), multiple sources combined.

{"testSmiles": "CC(C)[C@H](N)C(=O)OCCOCCOc1cc2ncn(-c3ccc(C#N)cn3)c2nc1NC1CCOCC1", "IC50": "13.5 nM"}
{"testSmiles": "O=C(CCc1cn(-c2ccccc2)c(NC(=O)c2cccc(-c3cn[nH]c3)c2)n1)Nc1ccc(F)cc1F", "IC50": "< 50 nM"}

Ask: Record lookup: for IRAK4 (Homo sapiens (Human)), what IC50 belongs to Cc1cccc(-n2ncc3cc(C)c(-c4cncc(N)c4)cc32)n1 ?
Reply: 1000 to 10000 nM

* * *

pIC50: −log10 of the molar value.
Endpoint summary: pIC50, system: IRAK4 (Homo sapiens (Human), UniProt Q9NWZ3), multiple sources combined.

As a guide, the following entries are already answered.
{"testSmiles": "Cn1cc(-c2cccc(C(=O)Nc3nc(CCCC(=O)N4CCN(S(C)(=O)=O)CC4)cn3-c3ccccc3)c2)cn1", "targetSystem": "IRAK4 (Homo sapiens (Human), UniProt Q9NWZ3)", "pIC50": "> 7.30"}
{"testSmiles": "O=C(CCCc1cn(-c2ccccc2)c(NC(=O)c2cccc(-c3cnn(C(F)F)c3)c2)n1)NC1CC1", "targetSystem": "IRAK4 (Homo sapiens (Human), UniProt Q9NWZ3)", "pIC50": "> 7.30"}
{"testSmiles": "CNc1cncc(-c2ccc3cnn(-c4cccc(C)n4)c3c2)c1", "targetSystem": "IRAK4 (Homo sapiens (Human), UniProt Q9NWZ3)", "pIC50": "6.00 to 7.00"}

Ask: Record lookup: for IRAK4 (Homo sapiens (Human), UniProt Q9NWZ3), what pIC50 belongs to CCCOC(=O)N1CCc2sc3ncnc(O[C@H]4CC[C@H](N(C)C)CC4)c3c2C1 ?
Reply: > 5.30

Ask: Record lookup: for IRAK4 (Homo sapiens (Human), UniProt Q9NWZ3), what pIC50 belongs to N#Cc1nccc(-c2ccc3cnn(-c4cccc(C(F)(F)F)n4)c3c2)n1 ?
Reply: 5.00 to 6.00

Ask: Record lookup: for IRAK4 (Homo sapiens (Human), UniProt Q9NWZ3), what pIC50 belongs to CC(=O)c1cccc(-c2ccc3cnn(-c4ccccn4)c3c2)n1 ?
Reply: 5.00 to 6.00

* * *

Endpoint summary: pIC50, system: IRAK4 (Homo sapiens (Human), UniProt Q9NWZ3), multiple sources combined.
pIC50: −log10 of the molar value.

As a guide, the following entries are already answered.
{"molecule": "NC(=O)C[C@H]1CCc2sc3ncnc(OC4CCC(NC5COC5)CC4)c3c21 (some centres unmarked)", "pIC50": "> 5.30"}
{"molecule": "CN(C)[C@H]1CC[C@H](Oc2ncnc3sc4c(c23)[C@@H](C[C@H](O)c2cc[nH]n2)CC4)CC1", "pIC50": "> 5.30"}
{"molecule": "CCn1cc(-n2ccc3nc(Nc4cc(C)ns4)nc(OC4CCOCC4)c32)cn1", "pIC50": "6.00 to 7.00"}
{"molecule": "CN(C)C1CCN(C(=O)CCCc2cn(-c3ccccc3)c(NC(=O)c3cccc(-c4cnn(C)c4)c3)n2)CC1", "pIC50": "> 7.30"}
{"molecule": "Cn1cc(-c2cccc(-c3ncc(-c4cnn(C)c4)c(NC[C@H](O)CO)n3)c2)cn1", "pIC50": "6.00 to 7.00"}
{"molecule": "O=C(CCc1cn(-c2ccccc2)c(NC(=O)c2cccc(-c3cn[nH]c3)c2)n1)Nc1cnccn1", "pIC50": "< 7.00"}

Ask: Name the reported pIC50 value associated with the molecule COCCOc1cc(-c2cccc(C3(N)CCOC3)n2)cc2c1cnn2-c1cccc(CO)n1 (centres unmarked)
Reply: > 7.00

Ask: Name the reported pIC50 value associated with the molecule c1nscc1Nc1nc(N[C@H]2CC[C@H](N3CCOCC3)CC2)c2c3c(sc2n1)CCC3
Reply: ≥ 5.30
